Target: T1, P1R-DelNt (truncated human P1R deleted for residues 24-181) (human, UniProt Q03431 182-593)
T1 sequence (looked up): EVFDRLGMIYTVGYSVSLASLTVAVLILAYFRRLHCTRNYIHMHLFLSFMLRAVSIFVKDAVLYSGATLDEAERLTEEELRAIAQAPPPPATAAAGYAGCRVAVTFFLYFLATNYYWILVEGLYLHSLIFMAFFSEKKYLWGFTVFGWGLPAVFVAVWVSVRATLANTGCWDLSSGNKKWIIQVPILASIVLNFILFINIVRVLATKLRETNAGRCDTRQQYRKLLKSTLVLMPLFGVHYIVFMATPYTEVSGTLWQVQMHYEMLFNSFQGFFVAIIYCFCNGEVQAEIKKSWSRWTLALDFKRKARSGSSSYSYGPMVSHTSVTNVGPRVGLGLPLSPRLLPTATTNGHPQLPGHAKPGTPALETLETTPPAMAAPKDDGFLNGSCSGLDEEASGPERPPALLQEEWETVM
Assay: cell-based or functional assay
Non-standard residues stand in square brackets, D forms with d. No end group written: not given here. hArg = N=C(N)NCCCC[C@H](N)C(=O)O; Aib = CC(C)(N)C(=O)O
In this section, each of the binders is paired with its reported cAMP EC50.

| binder | measurement_units | cAMP EC50 |
| --- | --- | --- |
| [Aib]V[Aib]EIALMHQ[hArg]AKW-NH2 (N-terminus assumed; SMILES CC[C@H](C)[C@H](NC(=O)[C@H](CCC(=O)O)NC(=O)C(C)(C)NC(=O)[C@@H](NC(=O)C(C)(C)N)C(C)C)C(=O)N[C@@H](C)C(=O)N[C@@H](CC(C)C)C(=O)N[C@@H](CCSC)C(=O)N[C@@H](Cc1c[nH]cn1)C(=O)N[C@@H](CCC(N)=O)C(=O)N[C@@H](CCCCNC(=N)N)C(=O)N[C@@H](C)C(=O)N[C@@H](CCCCN)C(=O)N[C@@H](Cc1c[nH]c2ccccc12)C(N)=O) [[Aib^1,3, Ala^6]PTH(1-14)] | nM | 146 |
| AVAEIALMHAR-NH2 [[Ala^6, Ala^10]PTH(1-11)] | nM | 170000 |
| [Aib]V[Aib]EIQLMHQ[hArg]AKW-NH2 (N-terminus assumed; SMILES CC[C@H](C)[C@H](NC(=O)[C@H](CCC(=O)O)NC(=O)C(C)(C)NC(=O)[C@@H](NC(=O)C(C)(C)N)C(C)C)C(=O)N[C@@H](CCC(N)=O)C(=O)N[C@@H](CC(C)C)C(=O)N[C@@H](CCSC)C(=O)N[C@@H](Cc1c[nH]cn1)C(=O)N[C@@H](CCC(N)=O)C(=O)N[C@@H](CCCCNC(=N)N)C(=O)N[C@@H](C)C(=O)N[C@@H](CCCCN)C(=O)N[C@@H](Cc1c[nH]c2ccccc12)C(N)=O) [[Aib^1,3]PTH(1-14) (AibValAibGluIleGlnLeuMetHisGlnHarAlaLysTrp-amide)] | nM | 6.6 |
| [Aib]V[Aib]EIQLMHA[hArg]AKW-NH2 (N-terminus assumed; SMILES CC[C@H](C)[C@H](NC(=O)[C@H](CCC(=O)O)NC(=O)C(C)(C)NC(=O)[C@@H](NC(=O)C(C)(C)N)C(C)C)C(=O)N[C@@H](CCC(N)=O)C(=O)N[C@@H](CC(C)C)C(=O)N[C@@H](CCSC)C(=O)N[C@@H](Cc1c[nH]cn1)C(=O)N[C@@H](C)C(=O)N[C@@H](CCCCNC(=N)N)C(=O)N[C@@H](C)C(=O)N[C@@H](CCCCN)C(=O)N[C@@H](Cc1c[nH]c2ccccc12)C(N)=O) [[Aib^1,3, Ala^10]PTH(1-14)] | nM | 81 |
